tested on: Bacillus subtilis; test: Antibacterial activity against Bacillus subtilis ATCC 11774 assessed as growth inhibition at 1 mg/ml after 24 hrs by agar diffusion method; assay type: functional; conditions: ATCC 11774, 24 h, read-out: DIZ
Overview of recorded zone of inhibition at 1000 µg/mL for various molecules
ATTRIBUTE_MEASURED: zone of inhibition at 1000 µg/mL (mm)

* Cc1ccc(C)n1-c1[nH]nc(N2CCCC2)c1C#N | 8
* Cc1cc(O)n2nc(N3CCOCC3)c(C#N)c2n1 | 9
* CC(=O)n1nc(N2CCCC2)c(C#N)c1N | 14
* CSc1c(C#N)c(N)nc2c(C#N)c(N3CCCCC3)nn12 | 10
* Cc1cc(C)n2nc(N3CCCCC3)c(C#N)c2n1 | 10
* Cc1ccc(C)n1-c1[nH]nc(N2CCCCC2)c1C#N | 16
* N#Cc1c(N2CCCC2)n[nH]c1N | 9
* Cc1ccc(C)n1-c1[nH]nc(N2CCOCC2)c1C#N | 14
* N#Cc1nnc2c(C#N)c(N3CCCCC3)nn2c1N | 11
* N#Cc1c(N2CCOCC2)n[nH]c1N | 6
* CC(=O)n1nc(N2CCCCC2)c(C#N)c1N | 6
* N#Cc1c(N2CCCCC2)n[nH]c1N | 9
* CC(=O)c1nnc2c(C#N)c(N3CCCCC3)nn2c1C | 10

###

Overview of recorded MBC for various molecules
system: Serratia marcescens; experiment: Bactericidal activity against Serratia marcescens ATCC 13880 by broth dilution method; format: functional
ATTRIBUTE_MEASURED: MBC (µg/mL)

- N#Cc1c(N2CCCCC2)n[nH]c1N: 4000
- CSc1c(C#N)c(N)nc2c(C#N)c(N3CCCCC3)nn12: 16000
- Cc1cc(C)n2nc(N3CCCCC3)c(C#N)c2n1: 16000
- N#Cc1c(N2CCOCC2)n[nH]c1N: 8000
- N#Cc1c(N2CCCC2)n[nH]c1N: 8000

###

system: Staphylococcus aureus; test: Bactericidal activity against Staphylococcus aureus ATCC 25923 by broth dilution method; format: functional
ATTRIBUTE_MEASURED: MBC (mg/mL)

* Cc1cc(O)n2nc(N3CCOCC3)c(C#N)c2n1 | 16
* Cc1ccc(C)n1-c1[nH]nc(N2CCOCC2)c1C#N | 4
* N#Cc1nnc2c(C#N)c(N3CCCCC3)nn2c1N | 16
* N#Cc1c(N2CCCCC2)n[nH]c1N | 16
* CSc1c(C#N)c(N)nc2c(C#N)c(N3CCCCC3)nn12 | 16
* Cc1cc(C)n2nc(N3CCCCC3)c(C#N)c2n1 | 16
* N#Cc1c(N2CCCC2)n[nH]c1N | 16
* CC(=O)c1nnc2c(C#N)c(N3CCCCC3)nn2c1C | 16
* Cc1ccc(C)n1-c1[nH]nc(N2CCCCC2)c1C#N | 8
* Cc1ccc(C)n1-c1[nH]nc(N2CCCC2)c1C#N | 8

###

system: Escherichia coli; assay: Antibacterial activity against Escherichia coli ATCC 10536 assessed as growth inhibition by broth dilution method; type: functional
Overview of recorded MIC for various compounds
ATTRIBUTE_MEASURED: MIC (mg/mL)

- CC(=O)c1nnc2c(C#N)c(N3CCCCC3)nn2c1C: 16
- Cc1ccc(C)n1-c1[nH]nc(N2CCCC2)c1C#N: 8
- Cc1cc(O)n2nc(N3CCOCC3)c(C#N)c2n1: 16
- N#Cc1c(N2CCOCC2)n[nH]c1N: 8
